meta.source: paper PMC7516806

Tested on: MRSA 43300
Assay type: cell-based, Staphylococcus aureus
Details: MHB, 2–7 × 10^5 CFU/ml, 37°C, 24 h, no turbidity, at least three independent repeats
Positions of bridges follow the written chain, without caps; N, C: chain ends. Residues, ends and D or L forms follow the SMILES beside them.
Task for the reader: assign each of the following compounds its reported MIC MRSA 43300.

Past entries and their recorded results:
• C[C@H](NC(=O)[C@H](C)NC(=O)[C@H](Cc1c[nH]c2ccccc12)NC(=O)[C@H](Cc1c[nH]c2ccccc12)NC(=O)[C@H](Cc1c[nH]c2ccccc12)NC(=O)[C@H](CCCNC(=N)N)NC(=O)[C@@H]1CSSC[C@H](N)C(=O)N[C@@H](C)C(=O)N[C@@H](CO)C(=O)N[C@@H](Cc2ccc(O)cc2)C(=O)N[C@@H](Cc2ccccc2)C(=O)N1)C(N)=O [Peptide S3] (H-CASYFCRWWWAA-NH2; disulfide 1-6; N-terminus assumed) = >64 µM
• CC(C)C[C@H](NC(=O)[C@H](CC(C)C)NC(=O)[C@H](Cc1c[nH]c2ccccc12)NC(=O)[C@H](Cc1c[nH]c2ccccc12)NC(=O)[C@H](Cc1c[nH]c2ccccc12)NC(=O)[C@H](CCCNC(=N)N)NC(=O)[C@@H]1CSSC[C@H](N)C(=O)N[C@@H](C)C(=O)N[C@@H](CO)C(=O)N[C@@H](Cc2ccc(O)cc2)C(=O)N[C@@H](Cc2ccccc2)C(=O)N1)C(N)=O [Peptide S2] (H-CASYFCRWWWLL-NH2; disulfide 1-6; N-terminus assumed) = 8 µM

In the following, a different compound is considered.
Problem: What MIC MRSA 43300 value was documented for this compound, CC(C)C[C@H](NC(=O)[C@H](CC(C)C)NC(=O)[C@H](Cc1c[nH]c2ccccc12)NC(=O)[C@H](Cc1c[nH]c2ccccc12)NC(=O)[C@H](Cc1c[nH]c2ccccc12)NC(=O)[C@H](CCCNC(=N)N)NC(=O)[C@H](CS)NC(=O)[C@H](Cc1ccccc1)NC(=O)[C@H](Cc1ccc(O)cc1)NC(=O)[C@H](CO)NC(=O)[C@H](C)NC(=O)[C@@H](N)CS)C(N)=O [Peptide S4] (H-CASYFCRWWWLL-NH2; N-terminus assumed) ?
Result: >64 µM

---

Tested on: L. rhamnosus 7469
Assay: MIC, modified microtiter dilution
Assay type: cell-based, Lactobacillus rhamnosus
Settings: 2–7 × 10^5 CFU/ml, 37°C, 24 h, no turbidity, at least three independent repeats
Positions of bridges follow the written chain, without caps; N, C: chain ends. Residues, ends and D or L forms follow the SMILES beside them.
Task for the reader: assign each of the following molecules its reported MIC L. rhamnosus 7469.

Quick one: give me MIC L. rhamnosus 7469 for each item below, same order please.
1. C[C@H](NC(=O)[C@H](C)NC(=O)[C@H](Cc1c[nH]c2ccccc12)NC(=O)[C@H](Cc1c[nH]c2ccccc12)NC(=O)[C@H](Cc1c[nH]c2ccccc12)NC(=O)[C@H](CCCNC(=N)N)NC(=O)[C@@H]1CSSC[C@H](N)C(=O)N[C@@H](C)C(=O)N[C@@H](CO)C(=O)N[C@@H](Cc2ccc(O)cc2)C(=O)N[C@@H](Cc2ccccc2)C(=O)N1)C(N)=O [Peptide S3] (H-CASYFCRWWWAA-NH2; disulfide 1-6; N-terminus assumed)
2. CC(C)C[C@H](NC(=O)[C@H](CC(C)C)NC(=O)[C@H](Cc1c[nH]c2ccccc12)NC(=O)[C@H](Cc1c[nH]c2ccccc12)NC(=O)[C@H](Cc1c[nH]c2ccccc12)NC(=O)[C@H](CCCNC(=N)N)NC(=O)[C@H](CS)NC(=O)[C@H](Cc1ccccc1)NC(=O)[C@H](Cc1ccc(O)cc1)NC(=O)[C@H](CO)NC(=O)[C@H](C)NC(=O)[C@@H](N)CS)C(N)=O [Peptide S4] (H-CASYFCRWWWLL-NH2; N-terminus assumed)
3. C[C@@H]1NC(=O)[C@@H](N)CSSC[C@@H](C(=O)N[C@@H](CCCNC(=N)N)C(=O)N[C@@H](Cc2c[nH]c3ccccc23)C(=O)N[C@@H](Cc2c[nH]c3ccccc23)C(=O)N[C@@H](Cc2c[nH]c3ccccc23)C(=O)N[C@@H](CCCNC(=N)N)C(=O)N[C@@H](CCCNC(=N)N)C(N)=O)NC(=O)[C@H](Cc2ccccc2)NC(=O)[C@H](Cc2ccc(O)cc2)NC(=O)[C@H](CO)NC1=O [Peptide S1] (H-CASYFCRWWWRR-NH2; disulfide 1-6; N-terminus assumed)

Result:
[">64 µM", ">64 µM", ">64 µM"]

---

Tested on: L. rhamnosus 7469
Assay: MIC, modified microtiter dilution
Type: cell-based, Lactobacillus rhamnosus
Conditions: 2–7 × 10^5 CFU/ml, 37°C, 24 h, no turbidity, at least three independent repeats
Positions of bridges follow the written chain, without caps; N, C: chain ends. Residues, ends and D or L forms follow the SMILES beside them.
endpoint: MIC L. rhamnosus 7469

Problem: Form entry - test system: L. rhamnosus 7469; read-out: MIC L. rhamnosus 7469; molecule: CC(C)C[C@H](NC(=O)[C@H](CC(C)C)NC(=O)[C@H](Cc1c[nH]c2ccccc12)NC(=O)[C@H](Cc1c[nH]c2ccccc12)NC(=O)[C@H](Cc1c[nH]c2ccccc12)NC(=O)[C@H](CCCNC(=N)N)NC(=O)[C@@H]1CSSC[C@H](N)C(=O)N[C@@H](C)C(=O)N[C@@H](CO)C(=O)N[C@@H](Cc2ccc(O)cc2)C(=O)N[C@@H](Cc2ccccc2)C(=O)N1)C(N)=O [Peptide S2] (H-CASYFCRWWWLL-NH2; disulfide 1-6; N-terminus assumed)
Result: >64 µM

---

Tested on: MRSA 43300
Type: cell-based, Staphylococcus aureus
Details: MHB, 2–7 × 10^5 CFU/ml, 37°C, 24 h, no turbidity, at least three independent repeats
Positions of bridges follow the written chain, without caps; N, C: chain ends. Residues, ends and D or L forms follow the SMILES beside them.
endpoint: MIC MRSA 43300 (µM)
Give bare numbers, in µM.

Problem: What MIC MRSA 43300 value was documented for this compound, C[C@@H]1NC(=O)[C@@H](N)CSSC[C@@H](C(=O)N[C@@H](CCCNC(=N)N)C(=O)N[C@@H](Cc2c[nH]c3ccccc23)C(=O)N[C@@H](Cc2c[nH]c3ccccc23)C(=O)N[C@@H](Cc2c[nH]c3ccccc23)C(=O)N[C@@H](CCCNC(=N)N)C(=O)N[C@@H](CCCNC(=N)N)C(N)=O)NC(=O)[C@H](Cc2ccccc2)NC(=O)[C@H](Cc2ccc(O)cc2)NC(=O)[C@H](CO)NC1=O [Peptide S1] (H-CASYFCRWWWRR-NH2; disulfide 1-6; N-terminus assumed) ?
Result: 4

---

System: S. typhimurium 14028
Experiment: MIC, modified microtiter dilution
Format: cell-based, Salmonella typhimurium
Settings: MHB, 2–7 × 10^5 CFU/ml, 37°C, 24 h, no turbidity, at least three independent repeats
Positions of bridges follow the written chain, without caps; N, C: chain ends. Residues, ends and D or L forms follow the SMILES beside them.
endpoint: MIC S. typhimurium 14028

Past entries and their recorded results:
• C[C@@H]1NC(=O)[C@@H](N)CSSC[C@@H](C(=O)N[C@@H](CCCNC(=N)N)C(=O)N[C@@H](Cc2c[nH]c3ccccc23)C(=O)N[C@@H](Cc2c[nH]c3ccccc23)C(=O)N[C@@H](Cc2c[nH]c3ccccc23)C(=O)N[C@@H](CCCNC(=N)N)C(=O)N[C@@H](CCCNC(=N)N)C(N)=O)NC(=O)[C@H](Cc2ccccc2)NC(=O)[C@H](Cc2ccc(O)cc2)NC(=O)[C@H](CO)NC1=O [Peptide S1] (H-CASYFCRWWWRR-NH2; disulfide 1-6; N-terminus assumed) = 64 µM
• CC(C)C[C@H](NC(=O)[C@H](CC(C)C)NC(=O)[C@H](Cc1c[nH]c2ccccc12)NC(=O)[C@H](Cc1c[nH]c2ccccc12)NC(=O)[C@H](Cc1c[nH]c2ccccc12)NC(=O)[C@H](CCCNC(=N)N)NC(=O)[C@H](CS)NC(=O)[C@H](Cc1ccccc1)NC(=O)[C@H](Cc1ccc(O)cc1)NC(=O)[C@H](CO)NC(=O)[C@H](C)NC(=O)[C@@H](N)CS)C(N)=O [Peptide S4] (H-CASYFCRWWWLL-NH2; N-terminus assumed) = >64 µM
• C[C@H](NC(=O)[C@H](C)NC(=O)[C@H](Cc1c[nH]c2ccccc12)NC(=O)[C@H](Cc1c[nH]c2ccccc12)NC(=O)[C@H](Cc1c[nH]c2ccccc12)NC(=O)[C@H](CCCNC(=N)N)NC(=O)[C@@H]1CSSC[C@H](N)C(=O)N[C@@H](C)C(=O)N[C@@H](CO)C(=O)N[C@@H](Cc2ccc(O)cc2)C(=O)N[C@@H](Cc2ccccc2)C(=O)N1)C(N)=O [Peptide S3] (H-CASYFCRWWWAA-NH2; disulfide 1-6; N-terminus assumed) = >64 µM

In the following, a different compound is considered.
Problem: Form entry - test system: S. typhimurium 14028; read-out: MIC S. typhimurium 14028; compound: CC(C)C[C@H](NC(=O)[C@H](CC(C)C)NC(=O)[C@H](Cc1c[nH]c2ccccc12)NC(=O)[C@H](Cc1c[nH]c2ccccc12)NC(=O)[C@H](Cc1c[nH]c2ccccc12)NC(=O)[C@H](CCCNC(=N)N)NC(=O)[C@@H]1CSSC[C@H](N)C(=O)N[C@@H](C)C(=O)N[C@@H](CO)C(=O)N[C@@H](Cc2ccc(O)cc2)C(=O)N[C@@H](Cc2ccccc2)C(=O)N1)C(N)=O [Peptide S2] (H-CASYFCRWWWLL-NH2; disulfide 1-6; N-terminus assumed)
Result: >64 µM
